// Log2 (fold) (luciferase activity, log2 of the fold difference relative to DMSO controls) lookup, one value per entry
- System: Raf-1^gof intestinal tumors; note: test concentration or dose not given here
- CONDITION INFO: screen of 480 ICCB compounds in vials; compounds fed to flies with one-day old Raf-1^gof tumors, assessed three days later; esg-Gal4 luciferase
Peptide text beside a SMILES is read from it. * marks the point of attachment. Cbz = O=C(OCc1ccccc1)*

{"MOLECULE": "N#Cc1c(-c2ccccc2)no[n+]1[O-]", "TEST RESULT": "−0.280"}
{"MOLECULE": "O=C[C@@H]1CCCN1C(=O)[C@@H]1CCCN1C(=O)OCc1ccccc1 [Z-prolyl-prolinal] (Cbz-Pro-Pro-aldehyde)", "TEST RESULT": "−0.692"}
{"MOLECULE": "COCCCCCCCCCCCC(=O)O", "TEST RESULT": "−0.320"}

Log2 (fold) (luciferase activity, log2 of the fold difference relative to DMSO controls) for COC1=CC(=O)O[C@@H](/C=C/c2ccccc2)C1 (racemic) [Kavain (+/−)] is −0.357

Log2 (fold) (luciferase activity, log2 of the fold difference relative to DMSO controls) for CN1C(=O)[C@]23CC4=CC=C[C@H](O)[C@H]4N2C(=O)[C@@]1(CO)SS3 is −0.478

Log2 (fold) (luciferase activity, log2 of the fold difference relative to DMSO controls) for COc1ccc2cc1Oc1ccc(cc1)C[C@H]1c3cc(c(OC)cc3CCN1C)Oc1c(OC)c(OC)cc3c1[C@H](C2)N(C)CC3 is −0.318

Log2 (fold) (luciferase activity, log2 of the fold difference relative to DMSO controls) for c1ccc(CN(CCN(Cc2ccccn2)Cc2ccccn2)Cc2ccccn2)nc1 is −0.717

Log2 (fold) (luciferase activity, log2 of the fold difference relative to DMSO controls) for CCCCC/C=C\C[C@@H](O)/C=C/C=C\C/C=C\CCCC(=O)O [12(R)-HETE] is −0.219

Log2 (fold) (luciferase activity, log2 of the fold difference relative to DMSO controls) for O=C(O)c1cc(N(Cc2ccccc2O)Cc2cc(O)ccc2O)ccc1O is −0.297
